Source of measurements: paper PMC9482650

Molecular target: DLG1_3, Q12959
Sequence (Q12959 457-571): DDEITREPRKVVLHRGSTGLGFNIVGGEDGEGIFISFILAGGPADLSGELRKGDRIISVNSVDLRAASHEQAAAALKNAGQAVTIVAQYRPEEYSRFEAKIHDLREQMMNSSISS
Experiment: holdup assay
Set-up: key: below the threshold = too weak to quantify, mostly under pKd 3.1 to 4
Details: plain residues with an end cap or a label only (N-terminal biotin on a linker: ado-ado)
readout.type: pKd

Req: Reported pKd, binder TASPAKETSF [SLC2A7, Q6PXP3] : ____
Resp: below the threshold

Req: Given the binder LSEFKAMDSI [CTNNA1, P35221] , what is its reported pKd?
Resp: below the threshold

Req: Find the recorded pKd belonging to VKPQVSESKL [ACOT8, O14734] and report it.
Resp: below the threshold

Req: Look up pKd for this binder: PDGQCTVTEV [RNF146, Q9NTX7]
Resp: below the threshold

Req: State the recorded pKd for this entry: LKVPPEERLI [CRB2, Q5IJ48]
Resp: below the threshold

Continuing:
Req: For the binder ETQVTAETVI [TMEM225B, P0DP42] , what pKd is on record?
Resp: below the threshold
